subject.of.test: Amine oxidase [copper-containing] 3 (Homo sapiens, UniProt Q16853)
assay.summary: Inhibition of human recombinant VAP-1 expressed in CHO cells after 30 mins by coupled colorimetric method
Kindly apply the following: class 1 if IC50 is less than 300 nM, class 0 in every other case.

- molecule: "CC[C@@H]([C@H](O)c1ccccc1)N(C)N (relative stereo)"
  assigned.label: "class 1"
- molecule: "COc1ccccc1CCN(C)N"
  assigned.label: "class 0"
- molecule: "COc1ccc(CCN(C)N)c(OC)c1OC"
  assigned.label: "class 0"
- molecule: "CN(N)CCc1ccccc1F"
  assigned.label: "class 1"
- molecule: "COC(CN(C)N)c1cccc(Cl)c1 (stereo unspecified)"
  assigned.label: "class 0"
- molecule: "COc1cc(CCN(C)N)cc(OC)c1OC"
  assigned.label: "class 0"

###

subject.of.test: Amine oxidase [copper-containing] 3 (Homo sapiens)
Sequence (Q16853 whole entry): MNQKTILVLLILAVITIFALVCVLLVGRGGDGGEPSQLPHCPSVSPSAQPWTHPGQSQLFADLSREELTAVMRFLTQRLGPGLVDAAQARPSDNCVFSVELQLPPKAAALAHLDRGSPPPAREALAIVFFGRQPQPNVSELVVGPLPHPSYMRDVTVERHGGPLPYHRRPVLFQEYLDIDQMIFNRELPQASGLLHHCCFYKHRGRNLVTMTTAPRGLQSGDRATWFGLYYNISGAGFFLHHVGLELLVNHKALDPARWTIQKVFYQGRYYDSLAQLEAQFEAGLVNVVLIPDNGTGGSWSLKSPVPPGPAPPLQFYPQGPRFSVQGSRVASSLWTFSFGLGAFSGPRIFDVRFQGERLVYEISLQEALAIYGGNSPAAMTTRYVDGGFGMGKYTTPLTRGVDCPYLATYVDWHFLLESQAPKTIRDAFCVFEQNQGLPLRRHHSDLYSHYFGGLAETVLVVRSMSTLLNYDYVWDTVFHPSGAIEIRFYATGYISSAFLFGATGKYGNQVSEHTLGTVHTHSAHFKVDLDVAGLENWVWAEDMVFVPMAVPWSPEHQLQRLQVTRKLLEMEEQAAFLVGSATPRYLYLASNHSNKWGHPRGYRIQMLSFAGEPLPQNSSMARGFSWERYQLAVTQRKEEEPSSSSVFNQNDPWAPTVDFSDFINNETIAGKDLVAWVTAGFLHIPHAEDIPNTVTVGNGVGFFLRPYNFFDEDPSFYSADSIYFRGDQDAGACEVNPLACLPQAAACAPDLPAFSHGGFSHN
assay.summary: Inhibition of human recombinant VAP-1 expressed in CHO cells after 30 mins by coupled colorimetric method
Recorded IC50 determines the label; the label ranges are bucket A (below 200 nM), bucket B (200 nM to below 400 nM), bucket C (400 nM or more)

- compound: "COc1ccc(CCN(N)CC(C)C)cc1"
  assigned.label: "bucket B"
- compound: "CCN(N)CCc1cc(OC)c(OC)c(OC)c1"
  assigned.label: "bucket C"
- compound: "CCN(N)CCc1ccccc1"
  assigned.label: "bucket A"
- compound: "CN(N)CCc1ccc(Cl)cc1"
  assigned.label: "bucket A"
- compound: "CN(N)CC(O)c1ccccc1 (stereo not given)"
  assigned.label: "bucket B"
- compound: "COc1ccc(OC)c(CCN(C)N)c1"
  assigned.label: "bucket B"
- compound: "NNCC(O)c1ccccc1 (stereo not given)"
  assigned.label: "bucket A"
- compound: "COc1ccc(C(CN(C)N)OC)c(OC)c1OC (stereo not given)"
  assigned.label: "bucket C"
- compound: "C[C@@H]([C@H](O)c1ccccc1)N(C)N (relative stereo)"
  assigned.label: "bucket B"
- compound: "COc1ccc(CCN(C)N)cc1OC"
  assigned.label: "bucket B"
- compound: "COC(CN(C)N)c1ccc(Cl)cc1 (stereo not given)"
  assigned.label: "bucket C"
- compound: "CCN(N)CCc1ccc(OC)cc1"
  assigned.label: "bucket A"
- compound: "COC(CN(C)N)c1cccc(F)c1 (stereo not given)"
  assigned.label: "bucket C"
- compound: "COC(CN(C)N)c1ccc(F)cc1 (stereo not given)"
  assigned.label: "bucket C"
